- Tested on: SF-539 CNS
- RUN DESCRIPTION: NCI-60 one-dose screen, 48 h
- EXPERIMENTAL PARAMETERS: 10 µM unless noted
This is part of a sample that, as a whole, favours compounds with a hit. Of some 83,000 tested, about 20% had one in any assay. The source made the active and inactive calls. The calls were made as follows: active = growth percent below 10; inactive = the rest.
Outcomes: true for active, false for inactive

* O=C(CSc1nc2ccccc2c(=O)n1-c1ccccc1)Nc1ccc(S(=O)(=O)Nc2nccs2)cc1 | false
* COc1ccc(NC2=C(Br)C(=O)C(C)=C(C)C2=O)cc1OC | false
* CN1CCN(CCCCCC(=O)Nc2nc(-c3cccc(NS(=O)(=O)c4cccc5c(N(C)C)cccc45)c3)cs2)CC1 | false
* C/C(=C(/C)C1CC1CCNC1CCC(NC(=O)OC(C)(C)C)CC1)c1ccccc1 (stereo not drawn) | false
* CCCc1cc2cc(-n3nc(CC)c4c3CC(C)(C)CC4=O)cc(NC3CCC(O)CC3)c2c(=O)[nH]1 (stereo not drawn) | true
* O=C(CSc1nc2ccccc2c(=O)n1CCc1ccccc1)Nc1ccc(S(=O)(=O)Nc2ccc(Cl)nn2)cc1 | false
* NC(=S)n1c(=O)n(-c2cccc(C(F)(F)F)c2)c(=O)c2cc(-c3ccc(F)cc3F)ccc21 | false
* Clc1ccc2c(N/N=C/c3c[nH]c4ccccc34)ccnc2c1 | true
* CCN(CC)CCOc1ccc(C(=C(c2ccccc2)C2CCCC2)c2ccc(OCCN(CC)CC)cc2)cc1 | true
* CSc1ccc(/C(=N/N=C(N)N)c2ccc(F)cc2)cc1 | false
* CC[C@H](CC[C@@H](C)[C@H]1CC[C@H]2[C@@H]3CC(=O)C4=CC(=O)/C(=C/c5ccc([N+](=O)[O-])cc5)C[C@]4(C)[C@H]3CC[C@]12C)C(C)C | false
* COc1ccc(-c2c3c(cn2Cc2cccc(OC)c2)-c2oncc2CCC3)cc1 | false
* O=C(CCCCCCN1CC(=O)N2[C@@H](c3ccccc3Br)c3[nH]c4ccccc4c3C[C@H]2C1=O)NO | false
* CC1CCN(CC(=O)Nn2c(COc3ccccc3)nc3ccccc3c2=O)CC1 | false
* C/C(CC1(O)C(=O)Nc2ccccc21)=N\O (stereo not drawn) | false
* CN1CCC[C@]2(C)[C@H]3CC[C@@H]4[C@@H]5[C@H]6OC[C@@]5(CCC6(C)C)CC[C@@]4(C)[C@]3(C)CC[C@H]2C1(C)C | false
* CC(C)[C@H]1c2[nH]c3ccccc3c2C[C@H]2C(=O)N(CCCCCCC(=O)NO)CC(=O)N12 | false
* c1ccc(-c2cn3c(-c4c[nH]c5ccccc45)csc3n2)cc1 | false

====

# reported growth; entries follow
- Tested on: COLO 205 colon
- RUN DESCRIPTION: NCI-60 one-dose screen, 48 h (100 = growth as untreated, 0 = no growth, -100 = all killed)
- EXPERIMENTAL PARAMETERS: 10 µM unless noted
The panel holds about 83,000 compounds, 20% with a hit somewhere; the sample as a whole holds those more often.
READOUT NAME: growth (%)

* Cc1ccc(-c2nc(SCC(=O)c3ccccc3)nc(Nc3ccc(S(N)(=O)=O)cc3)c2C#N)cc1 | 101
* CCN1CCN(c2ccc(NC(=O)Nc3ccc4c(ccn4-c4ccnc(C(=O)NC)c4)c3)cc2C(F)(F)F)CC1 | 97.9
* O=C1[C@@H]2Cc3c([nH]c4ccccc34)[C@H](c3ccc(Br)cc3)N2C(=O)CN1C1CCN(Cc2c(Cl)cccc2Cl)CC1 | 105
* CCOP(=O)(OCC)OC[C@]12CCC(C)(C)C[C@H]1C1=CC[C@@H]3[C@@]4(C)CC[C@H](OP(=O)(OCC)OCC)C(C)(C)[C@@H]4CC[C@@]3(C)[C@]1(C)CC2 | 66.6
* CCOC(=O)C1=C(C)NC(C)=C(C(=O)OC(C)C)C1c1cccc(C#N)c1 (centres undefined) | 114
* N#Cc1c(-c2ccc(F)cc2)cc(-c2c[nH]c3ccccc23)nc1-c1c[nH]c2ccccc12 | 113
* CCCCSC1=C(Cl)CN(c2ccc(Cl)cc2)C1=O | 125
* C#C[C@]1(O)CC[C@H]2[C@@H]3CC=C4c5sc(Nc6ncccc6C)nc5CC[C@]4(C)[C@H]3CC[C@@]21C | 34.8
* Cc1ccc2c(n1)C(=O)C(Cl)=C(Nc1cccc(C(=O)OC(C)(C)C)c1)C2=O | 119

====

- Test system: A498 renal
- RUN DESCRIPTION: NCI-60 one-dose screen, 48 h (100 = growth as untreated, 0 = no growth, -100 = all killed)
- EXPERIMENTAL PARAMETERS: 10 µM unless noted
Compounds without any hit were thinned out: in the full panel of roughly 83,000, 20% have a hit. Activity calls are given as the source filed them. The calls were made as follows: active = growth percent below 10; inactive = the rest.
READOUT NAME: growth

• O=C(CSc1cc[n+](CCCCO)c2ccccc12)n1ccc2ccccc21 = 114% (inactive)
• Cc1ccc(Nc2nc(SC(C)C)nc(-c3ccccc3)c2C#N)cc1 = 62.3% (inactive)
• CC(Nc1ncnc2ccc(-c3cnc(N)nc3)cc12)c1ccccc1 (centres undefined) = 11.5% (inactive)
• O=C(CN1CCN(c2cc(=O)[nH]c3ccc(F)cc23)CC1)N(c1ccccc1)c1ccccc1 = 83.7% (inactive)
• CN1CCC[C@]2(C)[C@H]3CC[C@@H]4[C@@H]5[C@H]6OC[C@@]5(CCC6(C)C)CC[C@@]4(C)[C@]3(C)CC[C@H]2C1(C)C = 90.1% (inactive)
• NCCNC(=O)c1cccc(COc2ccccc2NC(=O)c2cc(Br)c(Br)[nH]2)c1 = 81.1% (inactive)
• C#CCN(C)CCCOc1ccc(NCc2ccc(C(=O)NO)cc2)cc1Cl = -14.9% (active)
• Cc1ccc(CSC2=C(Cl)CN(c3ccc(Cl)cc3)C2=O)cc1 = 113% (inactive)
• CCNC(=O)Oc1ccc(/C(=C(/C)c2ccc(OC)cc2)c2ccc(OCCN3CCCCCC3)cc2)cc1 = 54.8% (inactive)

====

- Test system: RPMI-8226 leukemia
- RUN DESCRIPTION: NCI-60 one-dose screen, 48 h (100 = growth as untreated, 0 = no growth, -100 = all killed)
- EXPERIMENTAL PARAMETERS: 10 µM unless noted
The panel holds about 83,000 compounds, 20% with a hit somewhere; the sample as a whole holds those more often.
READOUT NAME: growth (%)

- O=C(CCCCCC/C=C\c1csc(Br)n1)NO: 53.9
- Cc1cc(C)cc(NC2=C(Cl)C(=O)c3nc(C)ccc3C2=O)c1: -15.1
- C=C(C)[C@@H]1CC[C@]2(C(=O)NC3CCCCC3)CC[C@]3(C)[C@H](CC[C@@H]4[C@@]5(C)CC[C@H](N)C(C)(C)[C@@H]5CC[C@]43C)[C@@H]12: 39
- CS(=O)(=O)c1nccc(-c2c(-c3cccc(OCc4ccc(Cl)c(C(F)(F)F)c4)c3)nc3sccn23)n1: -16.8

====

- Test system: SNB-19 CNS
- RUN DESCRIPTION: NCI-60 one-dose screen, 48 h (100 = growth as untreated, 0 = no growth, -100 = all killed)
- EXPERIMENTAL PARAMETERS: 10 µM unless noted
- Protocol: Growth inhibition of the SNB-19 human tumor cell line is measured as a screen for anti-cancer activity. Cells are grown in 96 well plates and exposed to the test compound for 48 hours. Compounds are tested at a single concentration, which is 10^-5 M for most compounds. The reported endpoint is percent growth (GI% or GIPRCNT), where numbers from 0 - 100% represent growth inhibition, and numbers from -100% - 0 represent cell death. For example, a value of 40 represents 60% growth inhibition. […]
This is part of a sample that, as a whole, favours compounds with a hit. Of some 83,000 tested, about 20% had one in any assay.
Listing: growth of selected compounds
READOUT NAME: growth (%)

• CNC(=O)c1cc(-c2ccc(NC(=S)Nc3cccc(C(F)(F)F)c3)cc2)nc2cccnc12 = 94.7
• COc1ccc(NC2=C(Br)C(=O)C(C)=C(C)C2=O)cc1OC = 84.9
• Nn1c(=O)n(-c2cccc(C(F)(F)F)c2)c(=O)c2cc(-c3ccc(F)cc3F)ccc21 = 9.55
• O=C(Nc1cc(C(F)(F)F)cc(C(F)(F)F)c1)Nc1ccc2oc(=O)ccc2c1 = 13.6
• Cn1cc(-c2nn3cc(-c4ccncc4)nc3s2)c2cc(Br)ccc21 = 81.7
• CC(=O)Nc1cc(N2CCOCC2)c2nc(NC(=O)c3[nH]c(C)c(Cl)c3Cl)sc2c1 = 83.9
• CC1=C(C)C(=O)C(Nc2ccc3c(c2)OCCO3)=C(Br)C1=O = 98.5
• O=C(/C=C/c1cccc(C(F)(F)F)c1)Nc1cccc(C(F)(F)F)c1 = 81.9
• COc1ccc2c(c1)C=CC1(O2)Oc2ccc(OC)cc2C=C1C (stereo not given) = 27.5
• Cn1cc(-c2nnc(N)nc2-c2c[nH]c3ccc(F)cc23)c2cc(Br)ccc21 = 25.6
• CC(=C(c1ccc(OCCN(C)C)cc1)c1ccc(OCCN(C)C)cc1)c1ccc(Cl)cc1 = -40.9
• CC/C(=C(/c1ccc(Cl)cc1)c1ccc(OCCN)cc1)c1ccccc1 = 99.8
• O=c1c2cc(-c3ccc(F)cc3F)ccc2n(Nc2ccccc2)c(=O)n1-c1cccc(C(F)(F)F)c1 = 11.5
• COc1cc2cc(Oc3ccc(NC(=O)c4cc(C(F)(F)F)cc(C(F)(F)F)c4)cc3)c(C)nc2cc1OCCN1CCOCC1 = 87.6
• COC(=O)c1ccc(NC2=C(Cl)C(=O)C(C)=C(C)C2=O)cc1 = 53.5
• Clc1ccc2[nH]cc(-c3nn4cc(-c5ccncc5)nc4s3)c2c1 = 24.4
• C/C(=N/N)c1nnn(-c2ccc(Br)cc2)c1C = 97.9
• CCN(CC)c1ccc(/C=N/NC(=O)c2ccc(S(N)(=O)=O)cc2)cc1 = 36.9
• CN1CCN(c2ccc(Nc3nc(NCCNC(=O)c4ccccc4)c4sccc4n3)cc2)CC1 = 88.4
• C#C[C@]1(O)CC[C@H]2[C@@H]3CC=C4c5sc(N6CCN(C)CC6)nc5CC[C@]4(C)[C@H]3CC[C@@]21C = 63.3
